Target: human MC4R receptor (human, UniProt P32245 1-332)
Sequence (P32245 whole entry): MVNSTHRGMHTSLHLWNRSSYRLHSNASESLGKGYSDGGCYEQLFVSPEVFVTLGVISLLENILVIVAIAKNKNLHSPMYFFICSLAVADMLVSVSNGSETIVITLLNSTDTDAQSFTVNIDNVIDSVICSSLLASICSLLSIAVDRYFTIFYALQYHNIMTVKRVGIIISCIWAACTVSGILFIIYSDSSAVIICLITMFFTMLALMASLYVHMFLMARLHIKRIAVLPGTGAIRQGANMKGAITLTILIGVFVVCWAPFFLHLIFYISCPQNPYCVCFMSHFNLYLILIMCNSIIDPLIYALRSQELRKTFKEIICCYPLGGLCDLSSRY
Test: cell-based or functional assay
Positions of bridges follow the written chain, without caps; N, C: chain ends. Non-standard residues stand in square brackets, D forms with d. 2Pal = N[C@@H](Cc1ccccn1)C(=O)O; 3Pal = N[C@@H](Cc1cccnc1)C(=O)O; Cit = NC(=O)NCCC[C@H](N)C(=O)O; Nle = CCCC[C@H](N)C(=O)O; Aib = CC(C)(N)C(=O)O
Could you please report measured MC4R selectivity vs MC1R for the items listed next?
Just the number, please, no unit after it.

Problem: Consider the binder {CH2CO}-[dA]H[dF]RFC-NH2 (thioether N-6; SMILES C[C@H]1NC(=O)CSC[C@@H](C(N)=O)NC(=O)[C@H](Cc2ccccc2)NC(=O)[C@H](CCCNC(=N)N)NC(=O)[C@@H](Cc2ccccc2)NC(=O)[C@H](Cc2c[nH]cn2)NC1=O) [CTX-1656] and give its measured MC4R selectivity vs MC1R.
Solution: 1

Problem: Consider the binder Ac-R[Nle]C[2Pal][dF]RWC-NH2 (disulfide 3-8; SMILES CCCC[C@H](NC(=O)[C@H](CCCNC(=N)N)NC(C)=O)C(=O)N[C@H]1CSSC[C@@H](C(N)=O)NC(=O)[C@H](Cc2c[nH]c3ccccc23)NC(=O)[C@H](CCCNC(=N)N)NC(=O)[C@@H](Cc2ccccc2)NC(=O)[C@H](Cc2ccccn2)NC1=O) [CTX-1619] and give its measured MC4R selectivity vs MC1R.
Solution: 86

Problem: Consider the binder Ac-R[Nle]C[Cit]FRWC-NH2 (disulfide 3-8; SMILES CCCC[C@H](NC(=O)[C@H](CCCNC(=N)N)NC(C)=O)C(=O)N[C@H]1CSSC[C@@H](C(N)=O)NC(=O)[C@H](Cc2c[nH]c3ccccc23)NC(=O)[C@H](CCCNC(=N)N)NC(=O)[C@H](Cc2ccccc2)NC(=O)[C@H](CCCNC(N)=O)NC1=O) [CTX-1609] and give its measured MC4R selectivity vs MC1R.
Solution: 4.15

Problem: Consider the binder Ac-RC[Aib][Cit][dF]R[dW]C-NH2 (disulfide 2-8) [CTX-1290] and give its measured MC4R selectivity vs MC1R.
Solution: 10

Problem: Consider the binder Ac-RC[dA]R[dF]R[dW]C-NH2 (disulfide 2-8; SMILES CC(=O)N[C@@H](CCCNC(=N)N)C(=O)N[C@H]1CSSC[C@@H](C(N)=O)NC(=O)[C@@H](Cc2c[nH]c3ccccc23)NC(=O)[C@H](CCCNC(=N)N)NC(=O)[C@@H](Cc2ccccc2)NC(=O)[C@H](CCCNC(=N)N)NC(=O)[C@@H](C)NC1=O) [CTX-1263] and give its measured MC4R selectivity vs MC1R.
Solution: 1.73

Problem: Consider the binder Ac-R[Nle]C[3Pal][dF]RWC-NH2 (disulfide 3-8; SMILES CCCC[C@H](NC(=O)[C@H](CCCNC(=N)N)NC(C)=O)C(=O)N[C@H]1CSSC[C@@H](C(N)=O)NC(=O)[C@H](Cc2c[nH]c3ccccc23)NC(=O)[C@H](CCCNC(=N)N)NC(=O)[C@@H](Cc2ccccc2)NC(=O)[C@H](Cc2cccnc2)NC1=O) [CTX-1620] and give its measured MC4R selectivity vs MC1R.
Solution: 47
